Where do these numbers come from? They come from paper PMC6572184.

Recorded viability at 24 h, 0.5 μg/mL for the following compounds
Assay: MTT reduction cytotoxicity assay
Assay type: cell-based, human
Details: human, AGS cells (human gastric adenocarcinoma), 0.5 μg/mL, 24 h, read-out: mean percentage of viable cells ± SD
Method: Cell cultures: The L929 mouse fibroblasts and human gastric adenocarcinoma cell line AGS were used for in vitro cytotoxicity assays. […] The viability of the cells was assessed by exclusion of trypan blue dye. Measurements of cellular metabolic activity and global growth inhibition: L929 cells were seeded into 96-well plates (2 × 10 ^5 cells/well) for 24 h, at 37 ^∘ C, 5% CO2 . […] Results are expressed as the mean percentage of viable cells ± standard deviation (SD) of four independent experiments. […]
measurementKind: viability at 24 h, 0.5 μg/mL (%)

- CC1CC(=O)OC(c2ccccc2)C1Cl (stereo not shown): 20
- C[C@@H]1CC(=O)O[C@H]1[C@@H](O)c1cccc2ccccc12 (mixture of isomers) [12a]: 26
- CC1CC(=O)OC(c2ccccc2)C1Br (stereo not shown): 25
- CC1CC(=O)OC(c2cccc3ccccc23)C1Br (stereo not shown): 26
- C[C@@H]1CC(=O)O[C@@H]1[C@@H](O)c1cccc2ccccc12 [13a]: 39
- C[C@@H]1CC(=O)O[C@H](c2cccc3ccccc23)[C@H]1Cl (relative stereo): 48
- CC1CC(=O)OC(c2ccccc2)C1I (stereo not shown): 52
